Test system: RSK4(Kin.Dom.2-C-terminal)
Construct: gene RPS6KA6
experimental.parameters: concentration: 1 μM,replicates: in singlicate; n = 1;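 further: KINOMEscan kinase panel screen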
reported.endpoint: %Inh (%)
Give just the numeric value; % need not be written.

Example entries begin here.
chemical.structure | result.unit | %Inh
O=C(NOCC1CC1)c1cc(Br)c(F)c(F)c1Nc1ccc(I)cc1Cl | % | 21
CC(=O)Nc1nc2cnc(Nc3cc(NC(=O)c4cccc(CC(C)(C)C#N)c4)ccc3C)nc2s1 | % | 0
C[C@@H](Oc1cc(-n2cnc3cc(-c4cnn(C)c4)ccc32)sc1C(N)=O)c1ccccc1Cl | % | 7

Now consider the entry below.
Item: CS(=O)(=O)c1cccc(CNc2nc(Nc3ccc4c(c3)[C@@H]3C[C@@H]4CNC3=O)ncc2C(F)(F)F)c1 Test system: RSK4(Kin.Dom.2-C-terminal) Read-out: %Inh Value: ?
5

====

Attribute: %Inh
Tested on: TTK
experimental.parameters: concentration: 1 μM,replicates: in singlicate; n = 1
Give just the numeric value; % need not be written.

compound | %Inh / %
COc1cc2nccc(Nc3ccc(Oc4ccccc4)cc3)c2cc1OC.Cl | 0
CN(c1ccccc1CNc1nc(Nc2ccc3c(c2)CC(=O)N3)ncc1C(F)(F)F)S(C)(=O)=O | 99.5
COC(=O)c1cccc(NC(=O)NC2CCN(c3ccnc(Nc4cc(OC)c(OC)c(OC)c4)n3)C2)c1 (stereo not drawn) | 0
Cc1cccc(-c2nc(Nc3ccncc3)c3sccc3n2)n1 | 27
COc1cc2ncn(-c3cc(OCC4CCCCC4)c(C(N)=O)s3)c2cc1OC | 30
O=C(NCC1CC1)c1ccc(-c2cc(C(=O)NC3CC3)ccc2F)cc1 | 12
CN(c1cccc(CNc2nc(Nc3ccc4c(c3)CC(=O)N4)ncc2C(F)(F)F)c1)S(C)(=O)=O | 97.5
CCn1c(-c2nonc2N)nc2cncc(Br)c21 | 0
Cn1ccc2ncnc(Oc3ccc(NC(=O)Nc4cnn(C(C)(C)C)c4)c(Cl)c3)c21 | 4
COc1cccc(CNC(=O)NC2CCN(c3ccnc(Nc4cc(OC)c(OC)c(OC)c4)n3)C2)c1 (stereo not drawn) | 22

Now consider the entry below.
Item: Cn1ccc2ncnc(Oc3ccc(NC(=O)Nc4ccnc(C(F)(F)F)c4)c(Cl)c3)c21 Test system: TTK Read-out: %Inh Value: ?
0

====

Attribute: %Inh
Test system: TNK1
experimental.parameters: concentration: 1 μM,replicates: in singlicate; n = 1
Give just the numeric value; % need not be written.

Example entries begin here.
chemical.structure | %Inh, %
O=C(Nc1cccc(Oc2ccc3nccn3n2)c1)Nc1cccc(C(F)(F)F)c1 | 26
Cn1ccc2ncnc(Oc3ccc(NC(=O)Nc4cc(C(C)(C)C)on4)c(Cl)c3)c21 | 0
Cn1ccc2ncnc(Oc3ccc(NC(=O)Nc4cncc(C(F)(F)F)c4)c(Cl)c3)c21 | 0

I am curious: what %Inh value has been reported for Cc1n[nH]c2cc(Nc3ccnc(Nc4cccc(CN5CCOCC5)c4)n3)ccc12 ?
33

====

Tested on: LZK
Construct: gene MAP3K13
experimental.parameters: concentration: 1 μM,replicates: in singlicate; n = 1
reported.endpoint: %Inh (%)
Give just the numeric value; % need not be written.

Example entries begin here.
compound | %Inh [%]
CCNCC(Cc1ccccc1)NC(=O)c1cc(Br)c(-c2ccnc3[nH]ccc23)s1.Cl.Cl (stereo not drawn) | 0
CCn1c(-c2nonc2N)nc2cncc(Br)c21 | 41

I am curious: what %Inh value has been reported for Cc1cccc2c(-c3ccncc3)c(-c3ccc(F)cc3)nn12.Cl ?
5
